Test: Oral bioavailability in Beagle dog at 0.5 mg/kg administered as solution in 40% PEG400 in saline
Format: ADME, organism-based, Canis lupus familiaris
Details: in vivo
readout: bioavailability (%)
Report as a plain number; the unit % is understood.

Qu. Requested field: bioavailability. Item: Cc1cc(Cl)cc(OCCn2cc(F)cn2)c1-c1nc(N)nc2c1CN(C(=O)NCC(C)(F)F)C2
Ans. 63

----------
Experiment: Oral bioavailability in Han Wistar rat at 10 mg/kg administered as suspension in 0.5% methylcellulose
Assay type: ADME, organism-based
Details: in vivo
readout: bioavailability (%)
The reply should contain only the number, in %.

Qu. // bioavailability lookup, key: Cc1cc(Cl)cc(OCCn2cc(F)cn2)c1-c1nc(N)nc2c1CN(C(=O)NCC(C)(F)F)C2
Ans. 15
